- System: L6-myotubes
- experiment notes: Glucose uptake in differentiated L6-myotubes (Biological Example 2)
- Type: cell-based
- condition set: glucose uptake; compound at 10 μM relative to isoproterenol at 10 μM; read-out: Biological example 2 (GU)

>  <sample smiles>
CC(C)(C)NC[C@H](O)c1cccc(F)c1F

>  <Emax at 10 µM>
> 75%

$$$$
>  <sample smiles>
CC(C)(C)NC[C@H](O)c1cncc(F)c1

>  <Emax at 10 µM>
> 75%

$$$$
>  <sample smiles>
CCCCNC[C@H](O)c1ccc(F)cc1

>  <Emax at 10 µM>
50 to 75%

$$$$
>  <sample smiles>
CCCCNC[C@H](O)c1ccc(F)cc1O

>  <Emax at 10 µM>
50 to 75%

$$$$
>  <sample smiles>
CCC[C@H]1CCC[C@H]([C@@H](O)c2cccc(F)c2)N1

>  <Emax at 10 µM>
50 to 75%

$$$$

====

- Test system: L6-myotubes
- experiment notes: Glucose uptake in differentiated L6-myotubes (Biological Example 2)
- Assay type: cell-based
- condition set: glucose uptake in differentiated L6-myotubes; compound at 10 μM, activity relative to isoproterenol at 10 μM; read-out: Biological example 2 (GU)
- Source text: Compounds described in publications referenced and incorporated herein were screened in accordance with the procedures outlined in Biological example 2 and Biological example 3. […]
measured metric: Emax at 10 µM

>  <sample smiles>
COc1ccc(CC23CCC([C@@H](O)c4cccc(F)c4)(CC2)N3)cc1

>  <assay value>
50 to 75%

$$$$
>  <sample smiles>
CNS(=O)(=O)[C@H]1CC[C@@H](CC(C)(C)NC[C@H](O)c2cncc(F)c2)CC1

>  <assay value>
50 to 75%

$$$$
>  <sample smiles>
CCOC(=O)CO[C@H]1CC[C@H](C(C)(C)NC[C@H](O)c2cccc(F)c2)CC1

>  <assay value>
> 75%

$$$$
>  <sample smiles>
CC(C)(C[C@H]1CC[C@H](NS(=O)(=O)C(F)(F)F)CC1)NC[C@H](O)c1cccc(F)c1

>  <assay value>
> 75%

$$$$
>  <sample smiles>
CS(=O)(=O)N(Cc1ccccc1)[C@H]1CC[C@H](C[C@@H]2CC[C@H]([C@@H](O)c3cccc(F)c3)N2)CC1

>  <assay value>
< 25%

$$$$
>  <sample smiles>
CN(C)S(=O)(=O)[C@H]1CC[C@H](CC(C)(C)NC[C@H](O)c2cccc(F)c2)CC1

>  <assay value>
25 to 50%

$$$$
>  <sample smiles>
O[C@@H](c1ccccc1F)C12CCC(CCc3cccnc3)(CC1)N2

>  <assay value>
> 75%

$$$$
>  <sample smiles>
CS(=O)(=O)Nc1ccc(CC23CCC([C@@H](O)c4cccc(F)c4)(CC2)N3)cc1

>  <assay value>
50 to 75%

$$$$
>  <sample smiles>
CC(C)(C[C@H]1CC[C@@H](NS(C)(=O)=O)CC1)NC[C@@H](O)c1cccc(C#N)n1

>  <assay value>
25 to 50%

$$$$
>  <sample smiles>
CCC[C@H]1CCCC[C@@H]([C@H](O)c2cncc(F)c2)N1

>  <assay value>
> 75%

$$$$
>  <sample smiles>
CC1(C)C[C@@H]([C@H](O)c2cccc(Cl)c2)N1

>  <assay value>
25 to 50%

$$$$
>  <sample smiles>
O[C@H](c1cncc(F)c1)C12CCC(C/C=C/c3ccccc3)(CC1)N2

>  <assay value>
> 75%

$$$$
>  <sample smiles>
O[C@H](c1cccc(F)c1)[C@H]1CC[C@@H](Cc2ccc(Cl)cc2)N1

>  <assay value>
> 75%

$$$$
>  <sample smiles>
CC(C)(NC[C@H](O)c1cccc(F)c1)[C@H]1CC[C@H](NS(C)(=O)=O)CC1

>  <assay value>
50 to 75%

$$$$
>  <sample smiles>
CC(C)(C[C@H]1CC[C@H](S(N)(=O)=O)CC1)NC[C@H](O)c1cncc(F)c1

>  <assay value>
50 to 75%

$$$$
>  <sample smiles>
CC1(C)C[C@H]([C@H](O)c2cccc(F)c2)N1

>  <assay value>
> 75%

$$$$
